experimental-system: MDR1 (P-gp) (Homo sapiens (Human))
Sequence (P08183 whole entry): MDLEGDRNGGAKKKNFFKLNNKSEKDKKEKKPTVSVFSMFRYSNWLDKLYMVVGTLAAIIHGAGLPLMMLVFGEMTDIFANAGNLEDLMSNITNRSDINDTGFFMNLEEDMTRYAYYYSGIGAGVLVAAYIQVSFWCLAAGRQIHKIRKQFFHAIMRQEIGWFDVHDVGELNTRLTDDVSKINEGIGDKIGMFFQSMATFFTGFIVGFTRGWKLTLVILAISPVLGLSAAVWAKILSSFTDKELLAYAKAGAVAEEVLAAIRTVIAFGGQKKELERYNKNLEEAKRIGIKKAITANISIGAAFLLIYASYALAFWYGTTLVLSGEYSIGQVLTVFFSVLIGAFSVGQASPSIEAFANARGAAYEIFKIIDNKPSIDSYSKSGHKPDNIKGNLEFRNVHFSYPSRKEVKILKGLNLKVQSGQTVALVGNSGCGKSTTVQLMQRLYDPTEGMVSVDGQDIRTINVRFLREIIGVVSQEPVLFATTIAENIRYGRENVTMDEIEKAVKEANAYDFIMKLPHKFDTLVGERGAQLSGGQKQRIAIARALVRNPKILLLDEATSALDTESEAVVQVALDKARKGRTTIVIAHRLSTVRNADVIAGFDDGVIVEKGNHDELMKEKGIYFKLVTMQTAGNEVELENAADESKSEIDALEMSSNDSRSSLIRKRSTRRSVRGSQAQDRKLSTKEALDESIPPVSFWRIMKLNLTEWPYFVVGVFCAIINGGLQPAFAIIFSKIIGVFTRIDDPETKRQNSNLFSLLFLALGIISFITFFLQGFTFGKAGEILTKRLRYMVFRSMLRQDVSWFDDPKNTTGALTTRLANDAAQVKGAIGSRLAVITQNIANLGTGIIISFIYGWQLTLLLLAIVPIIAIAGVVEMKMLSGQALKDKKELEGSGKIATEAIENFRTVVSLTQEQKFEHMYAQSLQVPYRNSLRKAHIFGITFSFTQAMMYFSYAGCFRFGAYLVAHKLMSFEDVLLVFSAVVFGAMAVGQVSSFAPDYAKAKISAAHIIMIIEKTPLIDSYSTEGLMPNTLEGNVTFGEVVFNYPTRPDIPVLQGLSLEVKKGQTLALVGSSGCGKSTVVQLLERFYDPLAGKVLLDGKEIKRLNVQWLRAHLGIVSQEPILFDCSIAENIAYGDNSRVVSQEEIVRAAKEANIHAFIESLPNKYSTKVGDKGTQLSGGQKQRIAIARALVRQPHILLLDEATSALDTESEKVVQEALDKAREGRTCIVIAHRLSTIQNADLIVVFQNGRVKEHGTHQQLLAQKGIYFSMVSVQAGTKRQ
assay-notes: MDR1 transfected MDCKII canine Mdr1 knockout permeability/efflux, Assay 7
condition-info: dog, MDCK-MDR1
Answer false if efflux ratio at 2 h, 1 μM is under 2, and true if it is 2 or more.

Decide: is the reported value of efflux ratio at 2 h, 1 μM for `Cc1cc(Nc2ncnc3cnc(N4CC[C@@](C)(O)C4)nc23)c(F)cc1Oc1ccc2c(c1)ncn2C` equal to or greater than 2?
false

Also `Cn1cnc2cc(Oc3ccc(Nc4ncnc5cnc(N6CCC67COC7)nc45)cc3Cl)ccc21.O=C(O)C(F)(F)F` , if possible.
false

Also Cc1cc(Nc2ncnc3cnc(N4CCOCC4)nc23)ccc1Oc1ccc2c(c1)ncn2C [Example 9, 2,2,2-trifluoroacetate] , if possible.
false

Also Cc1cc(Nc2ncnc3cnc(N4CC[C@@]45CCOC5)nc23)ccc1Oc1ccc2c(c1)ncn2C (single isomer, unassigned) [Example 93a] , if possible.
false

Also `CN(c1ncc2ncnc(Nc3ccc(Oc4ccc5c(c4)ncn5C)c(Cl)c3)c2n1)C1COC1` , if possible.
false

Also Cn1cnc2cc(Oc3ccc(Nc4ncnc5cnc(N6CC7C8CCC(O8)C7C6)nc45)cc3Cl)ccc21.O=C(O)C(F)(F)F (centres unmarked) , if possible.
false

Also `CO[C@H]1CN(c2ncc3ncnc(Nc4ccc(Oc5ccc6c(c5)ncn6C)c(C)c4)c3n2)C[C@H]1O` , if possible.
false

Also `Cc1cc(Nc2ncnc3cnc(N4CC5(CC(O)C5)C4)nc23)ccc1Oc1ccc2c(c1)ncn2C` , if possible.
true

Also `Cc1cc(Nc2ncnc3cnc(N4CCNC(=O)C4)nc23)ccc1Oc1ccc2c(c1)ncn2C` , if possible.
true
